For each of the compounds below, state its growth.
System: HT29 colon
Assay: NCI-60 one-dose screen, 48 h (100 = growth as untreated, 0 = no growth, -100 = all killed)
Details: 10 µM unless noted
About 83,000 compounds went through this panel and 20% of them were active in at least one assay; those are over-represented in the sample as a whole.
Answers are plain numbers, in %.

Report growth for every entry below.
1. CNCc1cccc2c1OCCOCCOCCNS(=O)(=O)c1ccc(cc1)-c1cnc(N)c(n1)C(=O)N2
2. C=C(C)[C@@H]1CCC[C@]2(C(=O)O)CC[C@]3(C)[C@@H](CC[C@@H]4[C@@]5(C)C/C(=C/c6ccncc6)C(=O)C(C)(C)[C@@H]5CC[C@]43C)[C@@H]12
3. CCOC(=O)c1c(C)nc2ccccc2c1/C=C/c1ccccc1
4. Oc1c(CN2CCCC2)cc(CSCc2ccccc2)c2cccnc12
5. CC1CCN(C(=O)CCCl)c2ccccc21 (stereo not drawn)
6. Cc1[nH]c(C2CC(c3ccc(C(F)(F)F)c(F)c3)=NN2c2ccccc2)c(C)c1C(=O)NCC(F)(F)F (stereo not drawn)
7. CN(Cc1cnc2nc(N)nc(N)c2n1)c1ccc(C(=O)NC(CCC(=O)O)C(=O)O)cc1Br (stereo not drawn)
8. Cc1cccc[n+]1C1c2ccccc2-c2ccccc21

## Result
1. 12.4
2. 14.8
3. 82.6
4. 91
5. 102
6. 84.6
7. 21.2
8. 79.2

Report growth for every entry below.
1. CC1=C2[C@@H](CC1)[C@]1(C)O[C@@](c3ccccc3)(C[C@H]1OC(=O)CO)[C@H]2OC(=O)/C=C/c1ccccc1
2. C[C@@H]1O[C@@H](O[C@@H]2C[C@H](c3ccc4c(c3O)C(=O)C3=C(C4=O)[C@@]4(O)C(=O)C[C@](C)(O)C[C@@]4(O)C=C3)O[C@H](C)[C@H]2O)CC[C@@H]1O[C@H]1C[C@@H](O)[C@H](O)[C@@H](C)O1
3. COc1cccc(/C=C/C(=O)c2cccc(Nc3nc(Nc4ccccc4)nc(Nc4ccccc4)n3)c2)c1
4. O=S(=O)(Nc1cc(Sc2cccc3cccnc23)c(O)c2ccccc12)c1ccccc1
5. CN1CCN(C(=S)SCCCCOc2cc(=O)oc3ccccc23)CC1
6. CCN1C(=O)N(CC)C2C1NN=c1s/c(=C\c3cnc(C)n3C)c(=O)n12 (stereo not drawn)
7. CC[C@]12C=CCN3CC[C@@]4(c5ccc(OC)cc5N(C)[C@H]4[C@@](O)(C(=O)OC)[C@@H]1OC(=O)CCC[P+](c1ccccc1)(c1ccccc1)c1ccccc1)[C@@H]32
8. CSC1=Nc2c(c(C)c(-c3ccccc3)n2CCCC(=O)O)C2=NC(=O)C[C@H](C)N12

## Result
87.2
108
65.8
-35.8
78.5
0.594
2.42
94.1

Report growth for every entry below.
1. COc1ccc(-c2cc(-c3ccccc3)nc(N3CCN(CCNc4ccnc5cc(Cl)ccc45)CC3)n2)cc1
2. CCn1c(-c2cc3c([nH]c4ccccc43)c(-c3cccc(O)c3)n2)n[nH]c1=S

## Result
[-67.6, -19.4]

###

System: COLO 205 colon
Experiment: NCI-60 one-dose screen, 48 h (100 = growth as untreated, 0 = no growth, -100 = all killed)
Conditions: 10 µM unless noted
Compounds without any hit were thinned out: in the full panel of roughly 83,000, 20% have a hit.
REPORTED PROPERTY: growth (%)
One number for each entry, in %.

Solved entries (count: 8):
Nc1ccc(-c2csc(-n3[nH]c(=O)ccc3=O)n2)cc1 109
Cc1ccc(C)c(/C=C2\CN(C(=O)OC(C)(C)C)C/C(=C\c3cc(C)ccc3C)C2=O)c1 30.9
CCNc1nc(O)c(/C=C2\C=Nc3ncccc32)s1 -33.3
O=C(O)c1cn(C2CC2)c2cc(N3CCN(C(=O)Nc4nc(-c5ccc(Br)cc5)cs4)CC3)c(F)cc2c1=O 24.2
Clc1ccc(-c2cc(-c3ccccc3)nc(NCCNc3ccnc4cc(Cl)ccc34)n2)cc1 -81.2
O=C(Cc1cccc(OC(F)(F)F)c1)Nc1ccc(CCCCc2nnc(NC(=O)Cc3ccccn3)s2)nn1 88.8
Cc1ccc2nc(-c3ccc(C(=O)NNC(=S)Nc4ccccc4)cc3)[nH]c2c1 119
C=C1CC[C@@H]2C(C)(C)[C@@H](O)CC[C@@]2(C)[C@@H]1COc1ccc2ccc(=O)oc2c1 92

Report growth for every entry below.
1. CN(C)CCCNC(=O)c1cncnc1Nc1ccc(OCc2cccc(F)c2)c(Cl)c1
2. Cc1ccc2c(-n3nc(C#N)c(C#N)c3N)cc(=O)[nH]c2c1
3. Cc1c(CC(=S)N2CCOCC2)nnn1-c1cccc(C(F)(F)F)c1
4. Cc1ccc(C(=O)Nc2cccc(C#Cc3cccc4[nH]nc(N)c34)c2)cc1C(F)(F)F
5. COc1ccc(-c2n[nH]c(=O)c3nc(NC(=S)Nc4ccc(Oc5ccccc5)cc4)sc23)cc1
6. COc1ccc(CNc2c3ccccc3nc3ccccc23)c(OC)c1
7. Cc1ccc(/C=C/C(=O)c2ccc(-n3cc(CN4CCN(c5cc6c(cc5F)c(=O)c(C(=O)O)cn6C5CC5)CC4)nn3)cc2)cc1
8. FC(F)(F)Oc1cccc(-c2cnc3ccc(-c4ccncc4)nn23)c1

## Result
1. -71.3
2. 97.8
3. 119
4. 40.2
5. 113
6. 24.6
7. 101
8. 16.1

Report growth for every entry below.
1. CCOC(=O)/C=C1\S/C(=N\Nc2cc(=O)[nH]c3ccccc23)N(c2ccccc2)C1=O
2. C=C(C)[C@@H]1CCC[C@]2(C(=O)N3CCN(C)CC3)CC[C@]3(C)[C@@H](CC[C@@H]4[C@@]5(C)CC/C(=N\NC(=O)c6ccncc6)C(C)(C)[C@@H]5CC[C@]43C)[C@@H]12

## Result
[106, 99.1]

Data provenance is PubChem BioAssay (NCI).
